Give measured TGI for each item. Keep answers brief.
# Test system: SK-OV-3 ovarian
# PROCEDURE TEXT: NCI tumour cell line growth inhibition, 48 h

                                   compound      target_desc  quantity_measured  experimental_value
0  CC12C3CC4C5CC(C(C53)[C@@H]1NCc1ccccc1)C42 (stereo not given in full)  SK-OV-3 ovarian                TGI            > 100 µM
1  CCOC(=O)[C@@H](NC(=O)OC(C)(C)C)[C@@H](O)C(=O)OCC  SK-OV-3 ovarian                TGI            > 100 µM
2  CC1(O)C2(c3ccccc3)CCC[N+]1(C)CC2 (stereo not given)  SK-OV-3 ovarian                TGI            > 100 µM
3          N#Cc1ccc([N+](=O)[O-])cc1NC(N)=S  SK-OV-3 ovarian                TGI            > 100 µM
4                CO/C=C(\Br)c1ccc2c(c1)OCO2  SK-OV-3 ovarian                TGI            > 100 µM

Below is a list of compounds. For each, state its recorded TGI.
1. C[N+](C)(C)C1CC([N+](C)(C)C)C2c3ccccc3C21 (stereo not given)
2. COc1c(C)c(OC)c(C(=O)CC(C)C)c(OC)c1C
3. CO/N=C(/C(=O)Nc1c[n+](CC(=O)[O-])cs1)c1csc(N)n1
4. COc1ccc(CNCCCN2C(=O)c3ccc4c5c(ccc(c35)C2=O)C(=O)N(CCCNCc2ccc(OC)c(OC)c2OC)C4=O)c(OC)c1OC
5. CCCCC(OC(=O)c1ccc(N)cc1)C(=O)Nc1nc(CC(=O)OCC)cs1 (stereo not given)
6. CN(C)CCN(C)C(=O)c1cccc2cccc(C(=O)O)c12
7. Cc1[nH]c2ccccc2c1C1=NO/C(=N\O)C(c2c(C)[nH]c3ccccc23)C1 (stereo not given)

## Result
> 100 µM
> 100 µM
> 100 µM
0.848 µM
> 100 µM
> 100 µM
> 100 µM
